Assign percentage damage caused to the plant, ZEAMX to each entry below.
- System: ZEAMX
- method.description: Post-emergence Test, ZEAMX
- Assay type: in vivo
- test.settings: sprayed after 8 days cultivation, 1000 g/ha, evaluated after 13 days

Request: Look up percentage damage caused to the plant, ZEAMX for this compound: O=C(O)c1nn(-c2ccc(OC(F)(F)F)cc2)c2cccc(-n3cc(Cl)cn3)c2c1=O [Compound P19]
Result: 2 (2=21-40%)

Request: Which percentage damage caused to the plant, ZEAMX value is on record for O=C(O)c1nn(-c2ccc(OC(F)(F)F)cc2)c2cccc(N3CCOCC3)c2c1=O [Compound P25] ?
Result: 0 (0=0%)

Request: Give the measured percentage damage caused to the plant, ZEAMX of C=C(OCC)c1cccc2c1c(=O)c(C(=O)OCC)nn2-c1ccc(OC(F)(F)F)cc1 [Compound P29] .
Result: 2 (2=21-40%)

Request: // lookup percentage damage caused to the plant, ZEAMX for C/C(=N\O)c1cccc2c1c(=O)c(C(=O)O)nn2-c1ccc(OC(F)(F)F)cc1 [Compound P15]
Result: 3 (3=41-60%)

###

- Test system: ZEAMX
- method.description: Post-emergence Test, ZEAMX
- Assay type: in vivo
- test.settings: sprayed after 8 days cultivation, 1000 g/ha, evaluated after 13 days
measured.property: percentage damage caused to the plant, ZEAMX

Request: Endpoint output: percentage damage caused to the plant, ZEAMX of CCOC(=O)c1nn(-c2ccc(OC(F)(F)F)cc2)c2cccc(CC#N)c2c1=O . Value?
Result: 3 (3=41-60%)

Request: Dear colleague, I am looking for the recorded percentage damage caused to the plant, ZEAMX of the following molecule: C=Cc1cccc2c1c(=O)c(C(=O)OCC)nn2-c1ccc(OC(F)(F)F)cc1
Result: 2 (2=21-40%)

Request: Item under review: COc1ccc(-n2nc(C(=O)O)c(=O)c3c(C#N)cccc32)cc1OC . Reported percentage damage caused to the plant, ZEAMX?
Result: 0 (0=0%)

Request: percentage damage caused to the plant, ZEAMX for CCOC(=O)c1nn(-c2ccc(OC(F)(F)F)cc2)c2cccc(-n3cc(Cl)cn3)c2c1=O ?
Result: 1 (1=10-20%)

###

- Tested on: Echinochloa crus-galli (ECHCG)
- method.description: Pre-emergence Test, ECHCG
- Format: in vivo
- test.settings: 1000 g/ha, evaluated after 13 days
measured.property: percentage damage caused to the plant, ECHCG

Request: Please report the recorded percentage damage caused to the plant, ECHCG for CCOC(=O)c1nn(-c2ccc(OC(F)(F)F)cc2)c2cccc(-n3cc(Cl)cn3)c2c1=O .
Result: 4 (4=61-80%)

Request: Data request, read-out percentage damage caused to the plant, ECHCG, for C/C(=N\O)c1cccc2c1c(=O)c(C(=O)O)nn2-c1ccc(OC(F)(F)F)cc1
Result: 4 (4=61-80%)

Request: State the recorded percentage damage caused to the plant, ECHCG for this entry: CCOC(=O)c1nn(-c2ccc(OC(F)(F)F)cc2)c2cccc(C(F)F)c2c1=O
Result: 0 (0=0%)

Request: What percentage damage caused to the plant, ECHCG value was documented for this molecule, CCOC(=O)c1nn(-c2ccc(OC(F)(F)F)cc2)c2cccc(-c3cc(C(F)F)on3)c2c1=O ?
Result: 0 (0=0%)

Request: Data request, read-out percentage damage caused to the plant, ECHCG, for O=C(O)c1nn(-c2ccc(OC(F)(F)F)cc2)c2cccc(C(F)F)c2c1=O
Result: 0 (0=0%)

Request: Entry CCOC(=O)c1nn(-c2ccc(OC(F)(F)F)cc2)c2cccc(-n3cc(C(F)(F)F)nn3)c2c1=O : reported percentage damage caused to the plant, ECHCG = ?
Result: 0 (0=0%)

Request: Could you tell me which percentage damage caused to the plant, ECHCG is on file for CCOC(=O)c1nn(-c2ccc(OC(F)(F)F)cc2)c2cccc(N3CCCCC3)c2c1=O ?
Result: 0 (0=0%)

Request: Reported percentage damage caused to the plant, ECHCG, molecule C=Cc1cccc2c1c(=O)c(C(=O)OCC)nn2-c1ccc(OC(F)(F)F)cc1 : ____
Result: 2 (2=21-40%)

Request: For CCOC(=O)c1nn(-c2ccc(OC(F)(F)F)cc2)c2cccc(C(C)=O)c2c1=O , what is its reported percentage damage caused to the plant, ECHCG?
Result: 4 (4=61-80%)

Request: Record request: percentage damage caused to the plant, ECHCG value, item C=C(OCC)c1cccc2c1c(=O)c(C(=O)OC)nn2-c1ccc(OC(F)(F)F)cc1
Result: 4 (4=61-80%)

Request: Which measured percentage damage caused to the plant, ECHCG value corresponds to CCOC(=O)c1nn(-c2ccc(OC(F)(F)F)cc2)c2cccc(CC#N)c2c1=O ?
Result: 5 (5=81-100%)

Request: May I ask what percentage damage caused to the plant, ECHCG has been recorded for O=C(O)c1nn(-c2ccc(OC(F)(F)F)cc2)c2cccc(N3CCCC3)c2c1=O ?
Result: 0 (0=0%)

Request: Please report the recorded percentage damage caused to the plant, ECHCG for CCOC(=O)c1nn(-c2ccc(OC)c(OC)c2)c2cccc(C#N)c2c1=O .
Result: 0 (0=0%)

Request: Any idea what its percentage damage caused to the plant, ECHCG is? The molecule is COC(=O)c1nn(-c2ccc(OC(F)(F)F)cc2)c2cccc(-c3ccc(F)cc3)c2c1=O
Result: 0 (0=0%)

Request: // query percentage damage caused to the plant, ECHCG value for entry O=C(O)c1nn(-c2ccc(OC(F)(F)F)cc2)c2cccc(N3CCCCC3)c2c1=O
Result: 1 (1=10-20%)

Request: # lookup: percentage damage caused to the plant, ECHCG of N#Cc1cccc2c1c(=O)c(C(=O)O)nn2-c1ccc(OC(F)(F)F)cc1
Result: 5 (5=81-100%)
